Data provenance: the supplement of paper PMC11908140

B1: library; numbered along this chain (parent)
chain: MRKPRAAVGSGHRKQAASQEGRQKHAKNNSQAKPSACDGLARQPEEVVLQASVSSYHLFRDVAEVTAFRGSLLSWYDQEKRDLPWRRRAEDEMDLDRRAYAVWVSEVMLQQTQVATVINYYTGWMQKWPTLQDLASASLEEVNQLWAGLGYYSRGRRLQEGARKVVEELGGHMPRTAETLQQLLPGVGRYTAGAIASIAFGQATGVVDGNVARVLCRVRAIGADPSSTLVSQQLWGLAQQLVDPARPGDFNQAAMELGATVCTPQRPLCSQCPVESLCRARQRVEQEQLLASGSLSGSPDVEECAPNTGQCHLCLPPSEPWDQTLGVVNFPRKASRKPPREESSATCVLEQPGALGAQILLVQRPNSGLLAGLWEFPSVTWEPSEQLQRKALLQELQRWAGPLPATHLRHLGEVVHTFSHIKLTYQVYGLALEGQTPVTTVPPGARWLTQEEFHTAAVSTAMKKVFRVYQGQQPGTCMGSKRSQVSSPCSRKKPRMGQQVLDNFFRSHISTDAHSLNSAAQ

Variants of: B1
Assay Remarks: 8OG:A repair function score (normalized; synonymous = 0, nonsense = -1) (normalized log-likelihood score); higher = more repair activity (WT-like);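 note: cells sorted at 72 h after reporter transfection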
Condition Summary: with 8OG:A DNA repair reporter (GFP) in HEK-293 MUTYH KO cells
Assay Metric: 8OG:A repair function score
Output spec: single numeric token, no unit.

Mutation String: A199L
Numeric Value: -1.01
--
Mutation String: K80W
Numeric Value: -0.847
--
Mutation String: G148Y
Numeric Value: -0.677
--
Mutation String: G161D
Numeric Value: -0.688
--
Mutation String: T263P
Numeric Value: -0.461

Problem: What does the data say about its 8OG:A repair function score? Entry: `S52P`
Solution: -0.0118

Problem: Lookup `R281C`
Solution: -0.173

Problem: Same again, this time with `R98N`
Solution: -0.122

Problem: What about this variant? `M125C`
Solution: -0.306

Problem: Request: `N251Q`
Solution: -0.901

Problem: Can you check `S515Q` next?
Solution: -0.00958

Problem: How about `A513P` ?
Solution: -0.0105

Problem: And for `A519R` ?
Solution: 0.013

Problem: Let us now turn to `A431C`
Solution: -0.0248

Problem: Record: `T260R`
Solution: -0.0323

Problem: What would you report for `Q132L` ?
Solution: -0.194

Problem: Please do the same for `D502R` as well.
Solution: 0.0187

Problem: Then `L290M` ?
Solution: -0.0856

Problem: Request: `G248N`
Solution: -0.871

Problem: Also, `S292D` please.
Solution: -0.0297
